Entries annotated with measured inhibition at 1 µM
target: wild type androgen receptor (AR) (Homo sapiens, UniProt P10275); experiment: AR-binding inhibition test, wild type (radio-labeled Mibolerone displacement); settings: compound 1 μM; 3 nM radio-labeled Mibolerone; 4° C., 3 hours; dextran/charcoal method; read-out: Inhibitory rate (%) at 1 μM, wild type
Sequence (P10275 whole entry): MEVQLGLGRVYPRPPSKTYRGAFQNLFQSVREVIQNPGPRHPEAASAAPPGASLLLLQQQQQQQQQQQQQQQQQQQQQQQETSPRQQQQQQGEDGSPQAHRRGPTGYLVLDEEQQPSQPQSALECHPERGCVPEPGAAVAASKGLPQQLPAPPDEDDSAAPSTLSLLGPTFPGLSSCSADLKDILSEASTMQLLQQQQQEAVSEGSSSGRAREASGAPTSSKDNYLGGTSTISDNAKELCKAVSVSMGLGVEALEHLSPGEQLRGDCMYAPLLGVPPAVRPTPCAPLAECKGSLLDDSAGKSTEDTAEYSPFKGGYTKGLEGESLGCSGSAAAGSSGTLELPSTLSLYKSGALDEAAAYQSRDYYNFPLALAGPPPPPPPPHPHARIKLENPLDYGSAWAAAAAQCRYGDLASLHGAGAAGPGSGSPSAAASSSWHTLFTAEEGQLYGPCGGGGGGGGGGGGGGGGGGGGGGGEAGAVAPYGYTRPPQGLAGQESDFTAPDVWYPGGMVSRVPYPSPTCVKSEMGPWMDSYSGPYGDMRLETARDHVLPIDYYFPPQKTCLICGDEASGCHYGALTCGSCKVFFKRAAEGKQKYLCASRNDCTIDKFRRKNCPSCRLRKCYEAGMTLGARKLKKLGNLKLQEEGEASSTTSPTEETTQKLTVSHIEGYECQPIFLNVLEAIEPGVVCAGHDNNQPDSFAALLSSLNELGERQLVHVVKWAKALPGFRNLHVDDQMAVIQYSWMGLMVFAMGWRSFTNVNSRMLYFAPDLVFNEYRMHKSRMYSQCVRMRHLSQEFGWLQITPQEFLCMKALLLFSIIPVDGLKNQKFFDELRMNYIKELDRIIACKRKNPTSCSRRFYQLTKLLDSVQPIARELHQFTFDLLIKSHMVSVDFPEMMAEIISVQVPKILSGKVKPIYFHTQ
Assay metric: inhibition at 1 µM (%)

>>> recorded_measurement("Cc1nn(Cc2ccc(S(N)(=O)=O)cc2)c(C)c1-c1ccc(C#N)c(Cl)c1")
84
>>> recorded_measurement("Cc1nn(Cc2ccc(C(N)=O)cc2)c(C)c1-c1ccc(C#N)c(Cl)c1F")
71
>>> recorded_measurement("Cc1nn(Cc2ccc(C(=O)NC3CC3)nc2)c(C)c1-c1ccc(C#N)c(Cl)c1")
70
>>> recorded_measurement("Cc1nnc(-c2ccc(Cn3nc(C)c(-c4ccc(C#N)c(Cl)c4)c3C)cc2)o1")
85
>>> recorded_measurement("Cc1nn(Cc2ccc(C(N)=O)nc2)c(C)c1-c1ccc(C#N)c(Cl)c1")
66
>>> recorded_measurement("Cc1nn(Cc2cccc(C(N)=O)c2)c(C)c1-c1ccc(C#N)c(Cl)c1")
76
>>> recorded_measurement("Cc1nn(Cc2ccc(C(N)=O)cc2)c(C)c1-c1ccc(C#N)c(Cl)c1")
88
>>> recorded_measurement("Cc1nn(Cc2ccc(C(=O)NC3CC3)cc2)c(C)c1-c1ccc(C#N)c(Cl)c1")
74
